Reference source: ChEMBL document CHEMBL5665443

- study-target: UniProtKB Q9UIF7
- Sequence (Q9UIF7 whole entry): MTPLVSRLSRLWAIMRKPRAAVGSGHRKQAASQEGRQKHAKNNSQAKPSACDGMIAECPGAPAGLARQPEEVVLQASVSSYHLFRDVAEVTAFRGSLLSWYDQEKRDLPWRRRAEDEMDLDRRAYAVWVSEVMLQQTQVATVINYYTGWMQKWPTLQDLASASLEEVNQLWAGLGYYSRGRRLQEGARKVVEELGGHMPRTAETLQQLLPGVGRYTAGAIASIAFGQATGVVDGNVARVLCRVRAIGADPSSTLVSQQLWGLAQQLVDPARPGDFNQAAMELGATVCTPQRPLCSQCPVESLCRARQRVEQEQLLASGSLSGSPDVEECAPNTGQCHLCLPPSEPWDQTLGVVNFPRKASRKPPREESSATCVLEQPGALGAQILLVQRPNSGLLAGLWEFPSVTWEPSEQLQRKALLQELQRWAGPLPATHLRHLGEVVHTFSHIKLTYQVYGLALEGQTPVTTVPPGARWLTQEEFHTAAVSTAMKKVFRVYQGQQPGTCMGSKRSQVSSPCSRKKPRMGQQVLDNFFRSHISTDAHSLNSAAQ
- conditions: Compound Concentration 10.0 uM, Hit No
- Description: Inhibition of MUTYH by quantifying inhibition of MUTYH-mediated cleavage and dissociation of quenched duplex DNA oligonucleotides, measured as fluorescence at 594 nm. To generate a functional strand incision and increase turn-over this assay is coupled to APE1.
In this section, each of the molecules is paired with its reported inhibition.
Enter your answer as a number in %; do not include the unit.

Study these solved cases before continuing.
>>> observed_result("COc1cc(-c2cn[nH]c2)ccc1C(=O)Nc1ccc2c(c1)CCNCC2")
-0.48
>>> observed_result("O=C(NNC(=O)c1ccc(CNS(=O)(=O)c2ccc(F)c(Cl)c2)cc1)c1ccccc1")
22.1
>>> observed_result("CCCCCCCC/C=C\\CCCCCCCC(N)=O")
15.9
>>> observed_result("CNC(=O)c1cc(C(=O)N[C@H]2[C@@H]3COC[C@@H]32)cc2c1O[C@@H](CF)[C@@H]2c1ccccc1")
-6.61
>>> observed_result("O=c1ccc2ccc(OCCCCN3CCN(c4cccc5sccc45)CC3)cc2[nH]1")
3.6

**Q:** Any idea what inhibition came out for COc1cc(OC2CCN(C(C)=O)CC2)ccc1C(=O)N1CCC(N2C(=O)OCc3ccccc32)CC1 on UniProtKB Q9UIF7?
**A:** 48.1

**Q:** Enter reported inhibition observed with UniProtKB Q9UIF7 for N[C@](CC1c2ccccc2Oc2ccccc21)(C(=O)O)[C@H]1C[C@@H]1C(=O)O
**A:** 12.3

**Q:** Could you share what inhibition was measured for O=c1ccn([C@@H]2O[C@H](COP(=O)(O)OP(=O)(O)OP(=O)(O)OP(=O)(O)OC[C@H]3O[C@@H](n4ccc(=O)[nH]c4=O)[C@H](O)[C@@H]3O)[C@@H](O)[C@H]2O)c(=O)[nH]1 , tested on UniProtKB Q9UIF7?
**A:** -6.25

* * *

- study-target: G/T mismatch-specific thymine DNA glycosylase (Homo sapiens) (UniProt Q13569);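 further: human TDG cleavage of quenched duplex DNA oligonucleotides coupled to APE1, strand release read as fluorescence at 594 nm, inhibition of TDG activity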
- Sequence (Q13569 whole entry): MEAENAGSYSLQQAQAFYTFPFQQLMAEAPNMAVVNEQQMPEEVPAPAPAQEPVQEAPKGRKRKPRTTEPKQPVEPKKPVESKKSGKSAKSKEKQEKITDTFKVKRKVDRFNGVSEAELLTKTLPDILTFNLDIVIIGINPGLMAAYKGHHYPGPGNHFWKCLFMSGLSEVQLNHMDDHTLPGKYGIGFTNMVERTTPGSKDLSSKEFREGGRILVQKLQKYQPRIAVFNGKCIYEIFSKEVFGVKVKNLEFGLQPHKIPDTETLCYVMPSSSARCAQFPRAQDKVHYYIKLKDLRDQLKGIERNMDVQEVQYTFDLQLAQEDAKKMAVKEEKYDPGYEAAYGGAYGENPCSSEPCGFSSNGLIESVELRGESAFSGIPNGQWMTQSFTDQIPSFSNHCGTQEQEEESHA
- conditions: Compound Concentration 10.0 uM, Hit No
- Description: Inhibition of TDG by quantifying inhibition of TDG-mediated cleavage and dissociation of quenched duplex DNA oligonucleotides, measured as fluorescence at 594 nm. To generate a functional strand incision and increase turn-over this assay is coupled to APE1.
Measured inhibition accompanies every entry in the list below.
# output: bare number, implied unit %

These solved cases illustrate the format of a correct answer.
>>> observed_result("Cc1nc[nH]c1CCN")
8.2
>>> observed_result("CC1(C)N=C(C2CCCCC2)c2ccc(C#N)cc2N(c2ccc(NCCNC3CCOCC3)cc2)C1=O")
5.19
>>> observed_result("O=C(O)Cc1cccc(OCCCN(Cc2cccc(C(F)(F)F)c2Cl)CC(c2ccccc2)c2ccccc2)c1")
54
>>> observed_result("CCCN(CCC)[C@@H]1CCc2ccc3[nH]c(C#N)cc3c2C1")
30

Lab note: next molecule to report on.
**Q:** Which inhibition is reported with G/T mismatch-specific thymine DNA glycosylase (Homo sapiens) (UniProt Q13569) for this entry: COc1cccc(-c2c(C)n(Cc3c(F)cccc3C(F)(F)F)c(=O)n(C[C@H](NCCCC(=O)O)c3ccccc3)c2=O)c1F ?
**A:** 27.2

* * *

Listed here are molecules together with their documented inhibition.
- study-target: UniProtKB P13051
- Sequence (P13051 whole entry): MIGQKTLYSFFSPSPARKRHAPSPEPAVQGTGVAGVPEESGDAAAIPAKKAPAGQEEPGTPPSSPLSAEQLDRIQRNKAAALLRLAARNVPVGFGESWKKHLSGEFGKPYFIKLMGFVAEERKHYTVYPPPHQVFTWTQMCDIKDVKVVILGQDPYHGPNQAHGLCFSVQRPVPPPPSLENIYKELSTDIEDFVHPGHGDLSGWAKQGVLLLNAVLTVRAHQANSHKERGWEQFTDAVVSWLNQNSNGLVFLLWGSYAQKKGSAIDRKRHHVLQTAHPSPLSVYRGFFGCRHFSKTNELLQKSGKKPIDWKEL
- conditions: Compound Concentration 1.0 uM, Hit No
- Description: Inhibition of UNG by quantifying inhibition of UNG-mediated cleavage and dissociation of quenched duplex DNA oligonucleotides, measured as fluorescence at 594 nm. To generate a functional strand incision and increase turn-over this assay is coupled to APE1.
# number only, unit % dropped from output

>>> observed_result("CN(C)CC#Cc1ccc2[nH]c3c(c2c1)-c1nc(N)ncc1CCC3")
3.22
>>> observed_result("Nc1c(C(=O)NCc2ccc(C(=O)NCCCC3CCCCC3)cc2)cnn1-c1ccccc1")
-7.24

As a next step, examine the molecule that follows.
**Q:** Form: Entry = CNC(=O)Nc1ccc2c(c1)CC[C@@]21OC(=O)N(CC(=O)N(Cc2ccc(F)cc2)[C@@H](C)C(F)(F)F)C1=O | System = UniProtKB P13051 | inhibition = ____
**A:** 5.87
